test system: Plasmodium berghei; assay: Screen against P. berghei liver stage (PbLuc), transformed with Luciferase, at 10uM; type: functional, HepG2; conditions: tested at 10 uM
Among all 69,000 compounds or so, about 8,600 (12%) showed an effect of 50% or more. The sample as a whole holds a higher share of strong results than the screen did.
reportedEndpoint: INHIBITION (%)

CC(C)(C)S(=O)(=O)CCNC(=O)c1ccc2ccccc2c1 -35.8
COc1ccc(S(=O)(=O)Nc2cnc(N(C)C)nc2)cc1 40.6
CSc1ccc(NS(=O)(=O)c2cnn(C)c2)cn1 1.81
O=S(=O)(Nc1cnc(N2CCCC2)nc1)c1ccc(OC(F)(F)F)cc1 40.1
Cn1cc(NS(=O)(=O)c2ccc(C(F)(F)F)cc2)ccc1=O 60.5
CN(C)c1ncc(NS(=O)(=O)c2ccc(OC(F)(F)F)cc2)cn1 51.6
